meta.source: ChEMBL document CHEMBL1201862

tested on: HT-29; assay: NCI tumour cell line growth inhibition, 48 h
Calls of active or inactive are those of the source. No stated cut-off is given here; in the data, active = GI50 up to about 1.1 µM and inactive = higher.
Choose the fitting class; nothing outside true (1) = active, false (0) = inactive is accepted.

compound: COc1ccc2[nH]c3c(cnn4cnnc34)c2c1
classLabel: false (0)
--
compound: CCCCCCCCCCCCC(=O)OC(c1cnco1)c1nc(C(O)CC(O)C(O)C(C)O)co1 (stereo unspecified)
classLabel: true (1)
--
compound: COC(=O)OCC1OC(N2C(=O)NC(=O)C(I)C2N=[N+]=[N-])CC1OC(=O)OC (stereo unspecified)
classLabel: false (0)

[in] // return assay outcome for `COc1ccc(C(=O)N/N=C2\C(=O)c3c(C)cc(C)cc3CC2(C)C)cc1`
[out] false (0)

[in] # fetch the recorded call for `CO[C@H](/C(C)=C/C=C/C(C)=C/c1coc(C)n1)[C@H](C)[C@H]1C[C@@H](O)[C@@]2(C)O[C@H]2/C=C/[C@@H](C)[C@@H]2C[C@@H](CC(=O)O2)C[C@H]2O[C@@H]2C(=O)O1` here
[out] true (1)

[in] Look up the recorded call for `Cc1ccc(Nc2n[nH]c(NS(=O)(=O)c3cc(C(=O)Nc4ccc(Cl)cc4)c(Cl)cc3S)n2)cc1` in this test.
[out] false (0)

[in] Check the results log: what was the call for `OCC(CO)C1c2cccc3ccc4cccc1c4c23` ?
[out] false (0)

[in] Given O=P(O)(O)C1CCCC(P(=O)(O)O)N1 (stereo unspecified) , state the outcome it received in this test.
[out] false (0)

[in] Record request — test call for `Cc1cc2[nH]c(=NS(=O)(=O)c3cc(C)c(Cl)cc3S)[nH]c2cc1C`
[out] false (0)

[in] // outcome(item) with item = O=c1[nH]c(=O)n(C2OC(CO)C(O)C2O)c2ncc(-c3ccc(-c4ccccc4)cc3)nc12 (stereo unspecified)
[out] false (0)

[in] Please share the test call associated with CCOC(=O)NNC(=O)C1CSC(c2ccccc2)N1C(C)=O (stereo unspecified) .
[out] false (0)

[in] Per the assay record, what outcome was assigned to `O=C1CSc2ccncc2N1` ?
[out] false (0)

[in] Any idea what this test logged for `COC(=O)C12CC3CC(CC(C(=O)O)(C3)C1)C2` ?
[out] false (0)

[in] Assay outcome for `NC(=O)NNC(=O)NC12CC3CC(CC(C3)C1)C2` : what was it?
[out] false (0)

[in] Could you please tell me the result logged for OCC(CCc1ccccc1I)C1=CCC2(CC1)OCCO2 (stereo unspecified) in this assay?
[out] false (0)

[in] Recorded test outcome, item CC(NNC(=O)c1cc[n+]([BH2-]C#N)cc1)c1cccc(C(F)(F)F)c1 (stereo unspecified)
[out] false (0)

[in] Recorded test call requested for `NS(=O)(=O)c1nnc(NS(=O)(=O)c2ccccc2C(=O)O)s1`
[out] false (0)

[in] What call does the record list for N#CC(NCCc1ccccc1)c1ccccc1 (stereo unspecified) ?
[out] false (0)

[in] Tell me the recorded outcome of this test for COC1=C(C)C(=O)C2=C(C1=O)C1C3CC4=C(C(=O)C(OC)=C(C)C4=O)C(CNC(=O)C(C)O)N3C(C#N)C(C2)N1C (stereo unspecified) .
[out] true (1)

[in] So what was the verdict on C[C@]12CCC(=O)C=C1CC[C@@H]1C2CC[C@]2(C)c3nn(-c4ccc(F)cc4)nc3CC12 (stereo partly specified) in this test?
[out] false (0)

[in] What outcome does the record of this test show for `COc1ccc(C(=O)CC2=Nc3nnc(CCCCCCCc4nnc5n4C(=O)C(CC(=O)c4ccc(OC)cc4)=N5)n3C2=O)cc1` ?
[out] false (0)

###

GI50: recorded values
system: MDA-N; assay: NCI tumour cell line growth inhibition, 48 h
Activity calls are given as the source filed them. No stated cut-off is given here; in the data, active = GI50 up to about 1.1 µM and inactive = higher.

[in] Hello, please tell me recorded GI50 for this one: `Cc1nc2c(=O)[nH]ncc2[nH]1`
[out] > 100 µM (inactive)

[in] Quickly give me recorded GI50 for `CCN(CC)CCCn1c(=O)c2ccccc2n2c3c(=O)n(C)c(=O)n(C)c3nc12`
[out] 14.2 µM (inactive)

[in] Look up and state reported GI50 for CC(=O)OCC1OC(n2c3c(c(-c4ccc(Cl)cc4)c(C#N)c2=S)C(=O)CC(C)(C)C3)C(OC(C)=O)C(OC(C)=O)C1OC(C)=O (centres undefined)
[out] 11.5 µM (inactive)

###

system: HCT-15
So basically: is GI50 under 20 µM? Then t. Not under? Then f.

[in] Threshold test, GI50 < 20 µM: `CN(C)c1ccc(C(=NNC(=O)c2cc3ccccc3[nH]2)c2ccc(N(C)C)cc2)cc1`
[out] t

[in] Is GI50 of CC1OC(OC2C(O)COC(OC3C(C)OC(OC4C(OC(=O)[C@]56CCC(C)(C)C[C@@H]5C5=CCC7[C@@]8(C)C[C@H](O)[C@H](OC9OC(CO)C(O)C(OC%10OC(CO)C(O)C(O)C%10O)C9O)[C@@](C)(CO)[C@@H]8CC[C@@]7(C)[C@]5(C)CC6)OCC(O)C4O)C(O)C3OC3OCC(O)(CO)C3O)C2O)C(O)C(O)C1O (some centres undefined) strictly below 20 µM?
[out] t

[in] Consider the compound `COC(=O)C12CC3CC(CC(C(=O)O)(C3)C1)C2` . Is its GI50 strictly less than 20 µM?
[out] f

[in] Is it true that GI50 reported for `O=C(NCCNCCNC(=O)C(F)(F)F)C(F)(F)F` is less than 20 µM?
[out] f

[in] # TODO verify GI50 < 20 µM strictly for this compound: CC(=O)O[C@H]1C(=O)[C@]2(C)[C@@H](OC(=O)OCC(O)CO)C[C@H]3OC[C@@]3(OC(C)=O)[C@H]2[C@H](OC(=O)c2ccccc2)[C@]2(O)C[C@H](OC(=O)[C@H](O)[C@@H](NC(=O)c3ccccc3)c3ccccc3)C(C)=C1C2(C)C (some centres undefined) [PACLITAXEL CERIBATE]
[out] t

[in] Report whether reported GI50 is lower than 20 µM (strictly) for `OCCN(C1=NCCN1)/[N+](=C/c1ccc(Cl)cc1)[CH-]c1ccc(Cl)cc1`
[out] f

[in] Strictly below 20 µM in GI50? `O=[Se](O)O`
[out] t

[in] Record `NCCCCNCCCN1CCOC1=O` : is its GI50 strictly below 20 µM?
[out] f

[in] Is the reported GI50 for CC[C@]12CCCN3CCc4c(n(c5ccccc45)C(=O)C1)[C@@H]32 [VINBURNINE] strictly below 20 µM?
[out] t

[in] Does this compound meet the criterion GI50 < 20 µM? `N#Cc1c(-c2ccc(Cl)cc2Cl)nc2[nH]nc(S)n2c1=O`
[out] f

[in] I wonder whether C=C1C(=O)OC2/C=C(/C)C(OC(C)=O)CC(O)/C(C)=C\C(OC(=O)/C(C)=C\C)C12 (centres undefined) has GI50 below 20 µM. Can you tell?
[out] f

[in] Please check: GI50 for `N#Cc1c2c(c(N3CCOCC3)n3c1nc1ccccc13)CCCC2` , strictly under 20 µM or not?
[out] t

[in] Lab note: GI50 threshold 20 µM. Does this compound come in strictly under it? `CNCCCNC1(c2cc3ccccc3s2)CCCCC1`
[out] t

[in] A record lists `COC(=O)C1([C@@H]2C[C@@H](O)[C@]3(C)CC/C=C(\C)CCC[C@H](C)[C@H](O)[C@@H]2O3)CC1` . Is its GI50 below 20 µM?
[out] f

[in] Just wondering, is GI50 of `Cc1c(C)c(C)c(-n2c(=O)n(C)c(=O)n2C(C)(C)C)c(C)c1C` below 20 µM?
[out] f

[in] Does the reported GI50 of c1ccc2c(c1)CCC/C2=N\OCC1CO1 (centres undefined) stay below 20 µM?
[out] f

[in] Please state whether GI50 is below 20 µM for O=C(O)CCC(=O)C(=O)O [ALPHA-KETOGLUTARIC ACID]
[out] f

[in] Hello, I'm reviewing records and need to know if GI50 of `Clc1cc(-c2ccccc2)nc2ccccc12` is below 20 µM. Could you check?
[out] t

###

GI50 values for the molecules below.
test system: T47D; assay: NCI tumour cell line growth inhibition, 48 h
Calls of active or inactive are those of the source. No stated cut-off is given here; in the data, active = GI50 up to about 1.1 µM and inactive = higher.

Worked examples, 6 molecules total:
molecule: O=C1C2CC=CCC2C(=O)N1n1c(-c2ccccc2)n[nH]c1=O (stereo unspecified)
GI50: > 100 µM (inactive)
//
molecule: NCCc1c[nH]c2ccc(OC(=O)C(=O)O)cc12
GI50: > 100 µM (inactive)
//
molecule: CC(=O)C(C(=O)C(C)(C)C)C(=O)C(C)(C)C
GI50: > 100 µM (inactive)
//
molecule: CCCCCC(=O)CCCCCCCC(O)CC(=O)OCC (stereo unspecified)
GI50: > 100 µM (inactive)
//
molecule: CC(C)(C)c1ccc(-n2c3nc(=O)n(-c4ccccc4C(F)(F)F)c(=O)c-3cc3ccccc32)cc1
GI50: 22.9 µM (inactive)
//
molecule: C[C@]12CCC(=O)C=C1CC[C@@H]1C2CC[C@]2(C)c3nn(-c4ccc(F)cc4)nc3CC12 (stereo partly specified)
GI50: > 100 µM (inactive)

[in] Look up and state reported GI50 for `COc1ccc(/C=C2\N=C(SC)N(C)C2=O)cc1`
[out] 42.6 µM (inactive)

[in] Read the entry `CCN(CC)CCNC(=O)c1ccc(C)c(OCc2ccccc2)c1[N+](=O)[O-]` and write its reported GI50.
[out] 20.7 µM (inactive)

[in] Give the reported GI50 for this molecule. `CCc1cccc(CC)c1Nc1nc(-c2ccccc2-c2ccccc2)cs1`
[out] > 100 µM (inactive)
